The measured values listed here are drawn from the supplement of paper PMC6733853.

Each entry below lists one item and its recorded Log(tau/KA) transduction coefficient (log10) value.
assay target: UniProt:P33535
Sequence (P33535 whole entry): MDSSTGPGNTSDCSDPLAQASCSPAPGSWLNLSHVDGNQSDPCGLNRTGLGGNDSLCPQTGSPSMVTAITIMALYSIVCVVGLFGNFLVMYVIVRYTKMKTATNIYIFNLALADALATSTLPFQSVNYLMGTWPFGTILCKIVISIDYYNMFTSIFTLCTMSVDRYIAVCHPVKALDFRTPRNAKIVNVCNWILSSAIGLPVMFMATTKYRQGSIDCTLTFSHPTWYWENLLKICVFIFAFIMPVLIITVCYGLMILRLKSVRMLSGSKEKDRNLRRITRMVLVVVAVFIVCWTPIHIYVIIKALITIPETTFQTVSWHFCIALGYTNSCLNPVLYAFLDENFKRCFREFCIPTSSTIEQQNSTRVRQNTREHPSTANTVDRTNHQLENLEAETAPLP
assay text: Log(tau/KA) transduction coefficient (log10 (M-1)); higher = more effective agonism
assay conditions: receptor: rat MOR; cAMP
attribute measured: Log(tau/KA) transduction coefficient (log10)

[[record]]
molecule = "COc1cccc(C2(O)CCCCC2CN(C)C)c1 (centres undefined) [Tramadol]"
readout_number = 5.02

[[record]]
molecule = "CN1CC[C@]23c4c5ccc(O)c4O[C@H]2[C@@H](O)C=C[C@H]3[C@H]1C5 [Morphine]"
readout_number = 8.08

[[record]]
molecule = "CCC1(c2cccc(O)c2)CCCCN(C)C1 (centres undefined) [Meptazinol]"
readout_number = 6.58

[[record]]
molecule = "CO[C@@]12CC[C@@]3(C[C@@H]1[C@](C)(O)C(C)(C)C)[C@H]1Cc4ccc(O)c5c4[C@@]3(CCN1CC1CC1)[C@H]2O5 [Buprenorphine]"
readout_number = 6.93

